system: human parathyroid hormone receptor 1 (human, UniProt Q03431)
method notes: cell-based or functional assay
Starred links: 1 amine or outer side, 2 acyl side, 3 side chain; linkers in the order of their positions; H or OH if unused. Non-standard residues stand in square brackets, D forms with d. No end group written: not given here. hSer(OMe) = COCC[C@H](N[*:1])C(=O)[*:2]; 1Nal = N[C@@H](Cc1cccc2ccccc12)C(=O)O; β3hI = CC[C@H](C)[C@H](N)CC(=O)O; β3hF = N[C@H](CC(=O)O)Cc1ccccc1; Nle = CCCC[C@H](N)C(=O)O; Aib = CC(C)(N)C(=O)O; βAla = NCCC(=O)O
endpoint name: hPTHR-1 EC50 (nM), CRE-luciferase reporter gene assay

# binder, display unit, recorded measurement
measured = [
    ("[Aib]VSEIQL[Nle]HNLGKHLN[βAla][Nle]ERVE[1Nal]LRKLLQDVHNF-NH2 [[Aib^1, Nle^8,18, β-Ala^17, 1-Nal^23, Leu^27] hPTH (1-34)-NH2]", "nM", 0.06),
    ("[Aib]VSEIQL[Nle]HNLGKHLKS[β3hI]ERVE[1Nal]LRKLLQRVHEF-NH2 [[Aib^1, Nle^8, Lys^16, β-hIle^18, 1-Nal^23, Leu^27, Arg^30, Glu^33] hPTH (1-34)-NH2]", "nM", 0.09),
    ("SVSEIQL[Nle]HNLGKHLNS[β3hI]ERVE[1Nal]LRKLLQRVHNF-NH2 [[Nle^8, β-hIle^18, 1-Nal^23, Leu^27, Arg^30] hPTH (1-34)-NH2]", "nM", 0.18),
    ("SVSEIQL[Nle]HNLGKHLNS[β3hI]ERVE[1Nal]LRKLLQDVHEF-NH2 [[Nle^8, β-hIle^18, 1-Nal^23, Leu^27, Glu^33] hPTH (1-34)-NH2]", "nM", 0.12),
    ("SVSEIQL[Nle]HNLGKHLNS[β3hI]ERVE[1Nal]LRKLLQDVHNK-NH2 [[Nle^8, β-hIle^18, 1-Nal^23, Leu^27, Lys^34] hPTH (1-34)-NH2]", "nM", 0.1),
    ("[Aib]VSEIQL[Nle]HSLGKHLKS[β3hI]ERVE[1Nal]LRKLLQRVHEE-NH2 [[Aib^1, Nle^8, Ser^10, Lys^16, β-hIle^18, 1-Nal^23, Leu^27, Arg^30, Glu^33, Glu^34] hPTH (1-34)-NH2]", "nM", 0.04),
    ("[Aib]VSEIQL[Nle]HNLGKHLN[β3hF][hSer(OMe)]ERVE[1Nal]LRKLLQDVHNF-NH2 [[Aib^1, Nle^8, β-hPhe^17, hSer(OMe)^18, 1-Nal^23, Leu^27] hPTH-(1-34)-NH2]", "nM", 0.1),
    ("SVSEIQL[Nle]HSLGKHLKS[β3hI]ERVE[1Nal]LRKLLQRVHEE-NH2 [[Nle^8, Ser^10, Lys^16, β-hIle^18, 1-Nal^23, Leu^27, Arg^30, Glu^33, Glu^34] hPTH (1-34)-NH2]", "nM", 0.04),
    ("AVSEIQL[Nle]HNLGKHLN[βAla][Nle]ERVE[1Nal]LRKLLQDVHNF-NH2 [[Ala^1, Nle^8,18, β-Ala^17, 1-Nal^23, Leu^27] hPTH (1-34)-NH2]", "nM", 0.2),
    ("[Aib]VSEIQL[Nle]HSLGKHLKS[β3hI]ERVE[1Nal]LRKLLQRV-NH2 [[Aib^1, Nle^8, Ser^10, Lys^16, β-hIle^18, 1-Nal^23, Leu^27, Arg^30] hPTH (1-31)-NH2]", "nM", 0.09),
    ("[Aib]VSEIQL[Nle]HELGKHLKS[β3hI]ERVE[1Nal]LRKLLQEVHEK-NH2 [[Aib^1, Nle^8, Glu^10, Lys^16, β-hIle^18, 1-Nal^23, Leu^27, Glu^30, Glu^33, Lys^34] hPTH(1-34)-NH2]", "nM", 0.04),
    ("[Aib]VSEIQL[Nle]HNLGKHLN[βAla][hSer(OMe)]ERVE[1Nal]LRKLLQDVHNF-NH2 [[Aib^1, Nle^8, β-Ala^17, hSer(OMe)^18, 1-Nal^23, Leu^27] hPTH (1-34)-NH2]", "nM", 0.06),
]
